For each record, write down the corresponding IC50.
System: HFF
Assay: Cytotoxicity against HFF cells assessed as reduction in cell viability after 72 hrs by CellTiter96 AQueous one solution cell proliferation assay
Format: cell-based
Conditions: Homo sapiens

## Task Field request: IC50 | item: CC1=C(C)C(=O)O[C@@H]([C@](C)(O)[C@]2(O)CC[C@@]3(O)[C@@H]4[C@@H](O)C=C5CC=CC(=O)[C@]5(C)[C@H]4CC[C@]23C)C1
## Result > 2000 nM

## Task What value of IC50 has been recorded for this entry: CC1=C(C)C(=O)O[C@@H]([C@](C)(O)[C@]2(O)CC[C@@]3(O)[C@@H]4C[C@H]5O[C@]56[C@@H](O)C=CC(=O)[C@]6(C)[C@H]4CC[C@]23C)C1
## Result > 2000 nM

## Task Fill in the blank: the reported IC50 of CC1=C(CO)C[C@H]([C@](C)(O)[C@]2(O)CC[C@@]3(O)[C@@H]4CC=C5CC=CC(=O)[C@]5(C)[C@H]4CC[C@]23C)OC1=O is ____.
## Result > 2000 nM

## Task Item under review: CC(=O)OC[C@]12CC[C@H]3[C@@H](C[C@H]4O[C@]45CC=CC(=O)[C@]35C)[C@]1(O)CC[C@@]2(O)[C@@](C)(O)[C@H]1CC(C)=C(C)C(=O)O1 . Reported IC50?
## Result > 2000 nM

## Task If you can, please state the reported IC50 value of CC1=C(C)C(=O)O[C@@H]([C@](C)(O)[C@]2(O)CC[C@@]3(O)[C@@H]4[C@@H](O)C=C5C=CCC(=O)[C@]5(C)[C@H]4CC[C@]23C)C1 .
## Result > 2000 nM
